molecular target: Microphthalmia-associated transcription factor (Homo sapiens) (UniProt O75030); assay: MITF inhibitors, retest of hits, confirmation, biochemical, AlphaScreen, triplicate (AID 1259372); settings: AlphaScreen MITF homodimerization, biotin/His-MITF beads; at 2.6 µM; stronger effect = higher value
Sequence (O75030 whole entry, looked up): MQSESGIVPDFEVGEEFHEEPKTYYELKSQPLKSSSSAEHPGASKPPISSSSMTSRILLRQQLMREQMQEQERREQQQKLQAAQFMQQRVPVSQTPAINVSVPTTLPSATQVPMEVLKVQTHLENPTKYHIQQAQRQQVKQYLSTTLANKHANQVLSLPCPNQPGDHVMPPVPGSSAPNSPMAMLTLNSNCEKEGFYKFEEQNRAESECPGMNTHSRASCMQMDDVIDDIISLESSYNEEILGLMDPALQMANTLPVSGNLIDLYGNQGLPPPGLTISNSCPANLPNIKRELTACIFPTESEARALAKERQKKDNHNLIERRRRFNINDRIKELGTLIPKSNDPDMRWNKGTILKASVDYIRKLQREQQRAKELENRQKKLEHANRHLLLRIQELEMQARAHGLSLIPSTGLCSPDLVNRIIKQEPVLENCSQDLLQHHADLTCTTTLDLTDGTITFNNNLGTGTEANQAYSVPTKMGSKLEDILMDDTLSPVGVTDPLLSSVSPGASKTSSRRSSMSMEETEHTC
About 760 (16%) of roughly 4,700 compounds were called active. These entries were drawn from the full list.
readout-label: inhibition (%)
The reply should be a number in %, with the unit left off.

Provide the documented inhibition with Microphthalmia-associated transcription factor (Homo sapiens) (UniProt O75030) as the system for `Cc1cnc(NCc2ccc3c(c2)OCO3)nc1Nc1ccccc1`
-0.48

----------
target: Microphthalmia-associated transcription factor (Homo sapiens) (UniProt O75030); test: MITF inhibitors, retest of hits, confirmation, biochemical, AlphaScreen, triplicate (AID 1259372); details: AlphaScreen MITF homodimerization, biotin/His-MITF beads; at 2.6 µM; stronger effect = higher value
In all, about 4,700 compounds went through this assay and about 760 (16%) were called active. The list is a sample of the results.
Class TRUE: inhibition at least 10%. Class FALSE: inhibition below 10%.

Take a look at these entries with their results.
1) Cc1nc2sc(C(c3ccccc3Cl)N3CCC4(CC3)OCCO4)c(O)n2n1 (stereo unspecified): TRUE
2) Cc1ccc(C(C)C)c(OCCN2CCNCC2)c1: FALSE
3) Cc1ccc(CN2CCN(Cc3ccncc3)CC2)cc1: TRUE
4) CC(c1ccccn1)N(CCN(C)C)C(=S)Nc1ccccc1F (stereo unspecified): TRUE
5) COc1cc(CN2CCN(Cc3ccc(C)cc3)CC2)c([N+](=O)[O-])cc1OC: FALSE
6) c1ccc(Oc2cccc(OCCCCn3cncn3)c2)cc1: FALSE
7) O=C1NC(c2ccccc2[N+](=O)[O-])C(C(=O)c2cccs2)C(O)(C(F)(F)F)N1 (stereo unspecified): FALSE
8) Cc1nc(NC2CC2)cc(-c2ccc(F)cc2)n1: TRUE
9) CCOc1ccccc1N1CCN(Cc2cc(OC)c(O)c([N+](=O)[O-])c2)CC1: TRUE
10) CCOc1cc(CN2CCN(Cc3ccccn3)CC2)ccc1OC: TRUE

Test whether the molecule `CN(C)CC(C)(C)CNCc1nnc(-c2ccccc2)o1` records inhibition of 10% or higher.
FALSE

----------
target: Microphthalmia-associated transcription factor (Homo sapiens); experiment: MITF inhibitors, retest of hits, confirmation, biochemical, AlphaScreen, triplicate (AID 1259372); settings: AlphaScreen MITF homodimerization, biotin/His-MITF beads; at 2.6 µM
Out of some 4,700 compounds screened, about 760 (16%) were called active.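 The calls were made as follows: active = inhibition above a cutoff derived from the DMSO control wells (cut at about 28% in these data); inactive = the rest.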 A selection follows.
Pick from 1 (active), -1 (inactive) when you respond.

1) COc1cccc(C(=O)N2CCN(Cc3cc(OC)c(OC)cc3OC)CC2)c1: -1
2) CC(C)(C)NCCOCCOc1ccc(Cl)c(Cl)c1: -1
3) COCCCN1C(=O)c2cccc3c(C(=O)c4ccccc4)ccc(c23)C1=O: -1
4) COC(=O)C(C)CN1CCN(Cc2ccc3c(c2)OCO3)CC1 (stereo unspecified): -1
5) O=c1c2ccccc2ncn1CCCCOc1ccccc1F: -1
6) Cc1nnc(N2CCC(Cc3ccccc3)CC2)c2ccccc12: -1
7) Fc1cccc(Cl)c1Cn1nnc(-c2ccncc2)n1: -1
8) O=C(c1ccccc1)N1CCN(C2CCCC2)CC1: -1
9) CCCCCOc1ccc(OC(=O)c2ccc(-c3ccc(CCC)cn3)cc2)cc1: -1
10) CCN(C(=O)Cc1nc(N)n[nH]1)C1(C(=O)Nc2ccccc2)CCCCC1: 1

# evaluate next
Tell me the assay call for `CCN(C(=O)Cc1nc(N)n[nH]1)C1(C(=O)Nc2ccc(C)cc2)CCCCC1` please.
1

----------
biological target: Microphthalmia-associated transcription factor (Homo sapiens); experiment: MITF inhibitors, retest of hits, confirmation, biochemical, AlphaScreen, triplicate (AID 1259372); details: AlphaScreen MITF homodimerization, biotin/His-MITF beads; at 2.6 µM; stronger effect = higher value
About 760 (16%) of roughly 4,700 compounds were called active. The list is a sample of the results.
readout-label: inhibition (%)
The reply should be a number in %, with the unit left off.

# example entries with known answers
1. c1cc2c(cc1CN1CCN(C3CCCCC3)CC1)OCO2: -2.28
2. COC(=O)c1sc(NC(=O)c2ccccc2C)c(C#N)c1C: -8.1
3. O=[N+]([O-])c1ccccc1S(=O)(=O)N1CCN(C2Cc3ccccc3C2)CC1: 4.35

Please give the measured inhibition for this compound: `CCOc1ccc(OCCCCNCCO)cc1`
10.6

Also, CCC(C)c1ccccc1NC(=O)CN(C)CC(=O)Nc1ccccc1SC (stereo not given) please.
-6.92

----------
molecular target: Microphthalmia-associated transcription factor (Homo sapiens); assay: MITF inhibitors, retest of hits, confirmation, biochemical, AlphaScreen, triplicate (AID 1259372); conditions: AlphaScreen MITF homodimerization, biotin/His-MITF beads; at 2.6 µM
Hit rate of the full screen: of about 4,700 compounds, about 760 (16%) were called active.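 Rule for the calls: active = inhibition above a cutoff derived from the DMSO control wells (cut at about 28% in these data); inactive = the rest.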 A selection follows.
Pick from active, inactive when you respond.

Take a look at these entries with their results.
1. COc1cc(CN2CCN(Cc3ccccc3Cl)CC2)cc(OC)c1OC: inactive
2. O=C(NN1C(=O)c2ccccc2C1=O)c1cccc(F)c1: inactive
3. CC(C)c1ccc(C2/C(=C(/O)c3ccccc3)C(=O)C(=O)N2CCN(C)C)cc1 (stereo not given): inactive
4. COc1ccc(CN2CCN(Cc3ccccc3OC)CC2)cc1Br: inactive
5. O=C(O)C1C2C=CC(O2)C1C(=O)Nc1nccs1 (stereo not given): inactive
6. Cc1cc(C(C)(C)C)ccc1OCCN1CCNCC1: inactive
7. CCOc1ccc(CN2CCN(C(=O)c3cccc(Cl)c3)CC2)cc1: inactive
8. Brc1cccc(CN2CCN(Cc3cccnc3)CC2)c1: inactive

Tell me the assay call for `Cc1ccc(C(C)C)c(OCC#CCN2CCNCC2)c1` please.
inactive

Also, O=C(Nc1ccc(-c2ccncc2)c(C(F)(F)F)c1)C1COc2ccccc2O1 (stereo not given) please.
active

Also, `N#Cc1nc(COc2cccc(Cl)c2)oc1NCCCn1ccnc1` please.
active

Also, Fc1cccc(CN2CCN(C3CCC(c4ccccc4)CC3)CC2)c1 (stereo not given) please.
inactive

Also, `Cc1ccc(C)c(OCCN2CCOCC2)c1C` please.
inactive

Also, `COc1cc(CN(CCN(C)C)Cc2ccccc2)cc(OC)c1` please.
inactive

Also, `O=C(C1CCN(Cc2nc3ccccc3[nH]2)CC1)N1CCN(c2ccccn2)CC1` please.
inactive

Also, `COc1ccc(Br)cc1CN1CCN(C(=O)c2cccnc2)CC1` please.
inactive

Also, CC1(C)CC(=O)C2=C(C1)Nc1ccccc1N(C(=O)Cc1ccccc1)C2c1ccc(-c2ccc([N+](=O)[O-])cc2)o1 (stereo not given) please.
inactive

Also, CC(NCCCN1CCOCC1)C(=O)Nc1ccccc1 (stereo not given) please.
inactive

Also, `O=C(CN1CCN(CC(=O)c2ccco2)CC1)Nc1ccc(Cl)c(Cl)c1` please.
inactive

Also, COc1ccc2c(c1)CC(C(=O)Nc1ccc(-c3cn[nH]c3)cc1OCC(N)=O)CO2 (stereo not given) please.
active

Also, `CCc1cccc(OCCOCCn2ccnc2)c1` please.
inactive

----------
target: Microphthalmia-associated transcription factor (Homo sapiens); test: MITF inhibitors, retest of hits, confirmation, biochemical, AlphaScreen, triplicate (AID 1259372); conditions: AlphaScreen MITF homodimerization, biotin/His-MITF beads; at 2.6 µM; stronger effect = higher value
Screen size: about 4,700 compounds; about 760 (16%) were called active. These entries were drawn from the full list.
Each record here notes measured inhibition.
The reply should be a number in %, with the unit left off.

# example entries with known answers
1) CC(C)CO/N=C1\C[C@@H](O)[C@@H](O)[C@@H]2[C@@H]3C(=O)N([C@@H](C)c4ccccc4)C(=O)[C@@H]3CC[C@@H]12: 3.51
2) CCN1CCN(CCCCOc2ccccc2F)CC1: 6.76
3) COc1ccc(COCC(O)CNCC(C)(C)CN(C)C)cc1OC (stereo not drawn): 3.01
4) COc1cccc(OC)c1C(=O)N1CCN(Cc2ccccc2F)CC1: 6.68
5) O=C(CNCc1cccnc1)Nc1ccc(C(=O)N2CCCCC2)cc1: 7.91

Provide the documented inhibition with Microphthalmia-associated transcription factor (Homo sapiens) as the system for CC(=O)c1ccc(NC(=O)C(C)NCc2ccc(C)cc2)cc1 (stereo not drawn)
3.11

Also, `c1ccc(CCCCNc2nccc(Nc3ccncn3)n2)cc1` please.
-1.64

Also, `CS(=O)(=O)N1CCN(Cc2cccc(Cl)c2)CC1` please.
-2.19

----------
Each record here notes measured inhibition.
target: Microphthalmia-associated transcription factor (Homo sapiens) (UniProt O75030); assay: MITF inhibitors, retest of hits, confirmation, biochemical, AlphaScreen, triplicate (AID 1259372); details: AlphaScreen MITF homodimerization, biotin/His-MITF beads; at 2.6 µM; stronger effect = higher value
The whole screen tested about 4,700 compounds, of which about 760 (16%) were called active. A selection follows.
The reply should be a number in %, with the unit left off.

Please give the measured inhibition for this compound: `Cc1cccnc1NC(=O)CSc1nnc(COc2ccc(C(C)C)cc2)n1C`
5.99

Also, `CN(C)c1cccc(Nc2ccc(-c3cccc(C=O)c3)cn2)c1` please.
65.7

Also, `c1ccc(-n2cc(CN3CCOCC3)c(-c3ccc4c(c3)OCCO4)n2)cc1` please.
13.2

Also, `COc1ccc(CN2CCC(C(=O)N3CCN(Cc4ccccc4)CC3)CC2)cc1` please.
13.8

Also, CC(C)(C)n1nnnc1C(c1ccc2ncccc2c1)N1CCSCC1 (stereo not given) please.
20.3

Also, `COc1cc(CN2CCN(Cc3cccnc3)CC2)cc(OC)c1OC` please.
6.15

Also, Clc1ccc(CN2CCN(CC3CC=CCC3)CC2)cc1 (stereo not given) please.
-2.27

Also, `COc1cc(CN2CCN(Cc3ccco3)CC2)c([N+](=O)[O-])cc1OC` please.
16.3

Also, `Cc1cc(NC(=O)CNCCCN(C)C)no1` please.
2.39

Also, `CCN(CC(=O)NCc1ccc(Cl)cc1)Cn1nnc2ccccc21` please.
0.75
